Listed here: items and their measured IC50.
biological target: DYRK1A (Rattus norvegicus); assay: Inhibition of DYRK1A (unknown origin)

molecule_smiles=COc1cccc(-c2cn3cc(Cl)ccc3n2)c1 system_name="DYRK1A (Rattus norvegicus)" observed_result="> 10 µM"

Task: Which IC50 value belongs to NC(=O)c1cc(-c2cn3ccccc3n2)ccc1O ?
Output: 4 µM

Task: Which IC50 value belongs to NC(=O)c1cc(-c2cn3cc(N)ccc3n2)ccc1O ?
Output: > 10 µM

###

target: DYRK1A (Rattus norvegicus); test: Inhibition of DYRK1A (unknown origin)
measure: IC50

Task: Which IC50 value belongs to NC(=O)c1cc(-c2cn3cc(F)ccc3n2)ccc1O ?
Output: 4.7 µM

Task: Which IC50 value belongs to Oc1ccc(-c2cn3cc(Cl)ccc3n2)cc1 ?
Output: > 10 µM

Task: Which IC50 value belongs to NC(=O)c1cc(-c2cn3cc(Br)ccc3n2)ccc1O ?
Output: 2.6 µM
